experiment.description: AUC (0 to infinity) in mouse at 1 to 2 mg/kg, iv by LC/MS/MS analysis
Type: ADME, organism-based
setup.conditions: in vivo
outcome.measure: AUC(0-inf) (ng·h/mL)
Numbers only here, please. The scale is ng·h/mL.

COc1cc2c(Oc3ccc(NS(=O)(=O)c4cc(F)ccc4F)cc3F)ccnc2cc1OCCCN1CCCC(C)C1 (configuration not stated): 1400

Turning to the following molecule.
Request: // AUC(0-inf) lookup, key: COc1cc2c(Oc3ccc(NS(=O)(=O)c4cc(F)ccc4F)cc3F)ccnc2cc1OCCCN1CCN(C)CC1
Result: 2650

* * *

Some compounds, each annotated with its measured IC50.
System: MDA-MB-231
experiment.description: Antimigratory activity against human MDA-MB-231 cells assessed as inhibition of large cell aggregate formation after 5 hrs by matrigel assay
Format: functional, cell-based
setup.conditions: MDA-MB-231, 5 h
Give the quantity in µM, number only.

COc1cc2c(Oc3ccc(NS(=O)(=O)c4ccccc4OC(F)(F)F)cc3F)ccnc2cc1OCCCN1CCN(C)CC1: 0.103
COc1cc2c(Oc3ccc(NS(=O)(=O)c4cc(F)ccc4F)cc3F)ccnc2cc1OCCCN1CCN(C)CC1: 0.158
COc1cc2c(Oc3ccc(NS(=O)(=O)c4c(F)cccc4F)cc3F)ccnc2cc1OCCCN1CCN(C)CC1: 0.156
COc1cc2c(Oc3ccc(NS(=O)(=O)c4cc(F)ccc4F)cc3F)ccnc2cc1OCCCN1CCCC(C)C1 (stereo not given): 0.185

Attention now shifts to the item below.
Request: Name the recorded IC50 for COc1cc2c(Oc3ccc(NS(=O)(=O)c4ccccc4C(F)(F)F)cc3F)ccnc2cc1OCCCN1CCN(C)CC1 .
Result: 0.158

Data provenance is ChEMBL document CHEMBL4371006.
